The measurements presented in this section are drawn from patent US9315458B2.

Assayed Target: human M1 receptor (hCHRM1) (Homo sapiens, UniProt P11229)
Sequence (P11229 whole entry): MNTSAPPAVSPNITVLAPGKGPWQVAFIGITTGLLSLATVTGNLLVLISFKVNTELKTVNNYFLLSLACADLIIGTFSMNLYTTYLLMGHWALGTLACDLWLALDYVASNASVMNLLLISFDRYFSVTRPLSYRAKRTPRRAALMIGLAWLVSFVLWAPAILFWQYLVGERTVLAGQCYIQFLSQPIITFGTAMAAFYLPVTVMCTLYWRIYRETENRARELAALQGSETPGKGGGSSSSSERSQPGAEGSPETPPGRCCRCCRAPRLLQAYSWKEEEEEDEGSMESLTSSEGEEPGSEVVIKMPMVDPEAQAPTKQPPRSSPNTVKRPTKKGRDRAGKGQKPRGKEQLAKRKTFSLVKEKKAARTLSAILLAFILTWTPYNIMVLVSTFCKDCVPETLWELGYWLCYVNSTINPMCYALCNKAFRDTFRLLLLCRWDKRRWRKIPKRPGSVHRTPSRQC
Test Details: Measurement of M1 receptor positive allosteric modulator (M1PAM) activity, calcium fluorescence (FLIPRtetra) with acetylcholine at EC20
Condition Set: inflection point of concentration-dependent curve; CHO-K1 cells expressing hCHRM1; acetylcholine at EC20 (final 0.6-0.8 nM); read-out: IP value
Observed Property: EC50 (nM)
Field: numeric (nM). Do not append units.

Consider the reported EC50 for these compounds:
- Compound: "Cc1ccc(Cc2cc3c(c(C)c2C)CN([C@H]2CCCC[C@@H]2O)C3=O)cn1 [Example 25]"
  EC50 [nM]: 10
- Compound: "Cn1cc(-c2ccc(Cc3cc4c(cc3Cl)CN(CC3CCCO3)C4=O)cc2)nn1 (centres unmarked) [Example 60]"
  EC50 [nM]: 72
- Compound: "CCc1cc2c(cc1Cc1ccc(-c3cn(C)nn3)cc1)C(=O)N(CC(C)(C)O)C2 [Example 118]"
  EC50 [nM]: 25
- Compound: "Cc1c(Cc2ccc(-n3cccn3)cc2F)cc2c(c1C)CN(CC(C)(C)O)C2=O [Example 121]"
  EC50 [nM]: 22

Request: Data request, read-out EC50, for Cc1cc2c(cc1Cc1ccc(-c3ccn(C)n3)cc1)C(=O)N([C@H]1CCC[C@@H]1O)C2 (racemic) [Example 51]
Response: 42
